Assayed system: OTU domain-containing protein 3 (Homo sapiens) (UniProt Q5T2D3)
Sequence (Q5T2D3 whole entry, looked up, the tested form may be a part): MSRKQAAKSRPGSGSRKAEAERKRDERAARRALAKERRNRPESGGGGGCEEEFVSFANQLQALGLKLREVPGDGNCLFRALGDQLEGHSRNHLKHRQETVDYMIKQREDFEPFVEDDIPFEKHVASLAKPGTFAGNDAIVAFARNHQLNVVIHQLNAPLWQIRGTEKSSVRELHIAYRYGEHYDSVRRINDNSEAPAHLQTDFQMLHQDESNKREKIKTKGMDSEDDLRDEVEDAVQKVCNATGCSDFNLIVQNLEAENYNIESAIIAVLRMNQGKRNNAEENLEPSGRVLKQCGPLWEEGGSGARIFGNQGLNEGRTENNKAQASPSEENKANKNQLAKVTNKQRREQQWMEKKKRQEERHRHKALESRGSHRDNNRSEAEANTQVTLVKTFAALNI
Assay overview: Validation of screening hits, potency titration, in vitro enzymatic, OTU domain-containing protein 3 DUB inhibitors (AID 1645868)
Settings: purified OTUD3, ubiquitin-rhodamine cleavage fluorescence, 2 h
Calls of active or inactive are those of the source.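 Rule for the calls: active = maximal percent inhibition of the deubiquitinase OTUD3 of at least 30% across the tested doses; inactive = the rest.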
Labels: active, inactive

[[record]]
molecule = "O=C(NCc1cccc(NC(=O)C2CC2)c1)Nc1cccc2ccccc12"
class_label = "active"

[[record]]
molecule = "CCCc1nc2sc3c(NCCc4ccc(OC)c(OC)c4)ncnc3c2c2c1CCC2"
class_label = "inactive"

[[record]]
molecule = "CNc1nc2c(c(=O)n1Cc1ccccc1)CN(C(=O)c1ccc(CN)cc1)CC2"
class_label = "inactive"

[[record]]
molecule = "Cc1ccc(C(=O)c2cn(CC(=O)Nc3ccccc3)c3ccc(C)cc3c2=O)cc1"
class_label = "active"

[[record]]
molecule = "Cc1ccc2nc(NC(=O)C3CCCN3S(=O)(=O)c3ccc4c(c3)OCCO4)sc2c1 (stereo not drawn)"
class_label = "inactive"

[[record]]
molecule = "O=C(CCCn1c(=O)c2ccccc2n(CC(=O)NCc2ccccc2Cl)c1=O)NCc1ccc2c(c1)OCO2"
class_label = "active"

[[record]]
molecule = "Cc1ccc(NC(=O)CSc2nc3c(cc2C#N)C(=O)CCC3)cc1"
class_label = "active"

[[record]]
molecule = "O=C(/C=C/c1cnc2ccccc2c1)NCc1ccccc1"
class_label = "inactive"

[[record]]
molecule = "COc1cnc(-c2ccccn2)nc1Sc1ccc(C)cc1"
class_label = "inactive"

[[record]]
molecule = "Cc1ccc(C(=O)Nc2nc3n(n2)C(c2ccccc2)CC(=O)N3)cc1 (stereo not drawn)"
class_label = "active"

[[record]]
molecule = "CC(CCc1ccccc1)NC(=O)C(=O)c1cn(CC(=O)N2CCOCC2)c2ccccc12 (stereo not drawn)"
class_label = "inactive"

[[record]]
molecule = "Cc1c(C)n(-c2ccccc2)c2ncn(CC(=O)N(C)Cc3ccccc3)c(=O)c12"
class_label = "inactive"

[[record]]
molecule = "COc1cccc(-c2nc(C(N)=O)c3[nH]c(=O)n(-c4cccc(Cl)c4)c3n2)c1OC"
class_label = "inactive"

[[record]]
molecule = "O=C(Cn1ncc2c(N3CCCCCC3)ncnc21)NCc1ccccc1"
class_label = "inactive"

[[record]]
molecule = "Cc1cccc(NC(=O)CSc2nnc(-c3n[nH]c4c3CCC4)n2N)c1C"
class_label = "active"

[[record]]
molecule = "Cc1nc(N2CCCC2)ncc1-c1cc(=O)[nH]c(N2CCc3ccccc3C2)n1"
class_label = "active"

[[record]]
molecule = "COc1cccc(/C=C/c2nc(C#N)c(N3CCN(C(=O)c4cccs4)CC3)o2)c1"
class_label = "inactive"

[[record]]
molecule = "Cc1nc(-c2cccc(NC(=O)c3ccccc3Cl)c2)no1"
class_label = "inactive"

[[record]]
molecule = "Cc1c(Cl)cccc1NC(=O)Cn1ccc2ccccc2c1=O"
class_label = "inactive"

[[record]]
molecule = "Cc1cccc(C(=O)N2CCN3Cc4ccccc4N(C)CC3C2)c1 (stereo not drawn)"
class_label = "inactive"

[[record]]
molecule = "COc1cc2c(cc1OC)-c1cc(Nc3ccc(Br)cc3)nc(=O)n1CC2"
class_label = "active"

[[record]]
molecule = "CCOc1ccc(NS(=O)(=O)c2ccc(NC(=O)Nc3ccccc3)cc2)cc1"
class_label = "active"

[[record]]
molecule = "CC(NC(=O)c1ccccc1)c1nc2ccccc2n1CC(=O)Nc1ccc2c(c1)OCO2 (stereo not drawn)"
class_label = "active"

[[record]]
molecule = "O=C1C=C(O)c2c(O)cccc2C1=O"
class_label = "active"

[[record]]
molecule = "O=C(CCCCn1c(=O)[nH]c2ccccc2c1=O)Nc1cccc(Cl)c1"
class_label = "active"

[[record]]
molecule = "COc1cccc(NC(=O)c2ccc(F)cc2Cl)c1"
class_label = "inactive"

[[record]]
molecule = "COc1ccc(C(=O)Nc2ccc3c(c2)Sc2ncccc2C(=O)N3C)cn1"
class_label = "inactive"

[[record]]
molecule = "O=C(c1nnn(Cc2ccc(Cl)cc2)c1-n1cccc1)N1CCCC1"
class_label = "inactive"

[[record]]
molecule = "COc1ccc(/C=C/c2ccnc3nc(-n4cccc4)nn23)cc1"
class_label = "inactive"

[[record]]
molecule = "Cc1c(C(=O)Nc2cccc(C(F)(F)F)c2)cnn1-c1ccccn1"
class_label = "inactive"

[[record]]
molecule = "Cc1ccccc1NC(=O)Cn1cncc(-c2nc(-c3ccccc3)cs2)c1=O"
class_label = "inactive"

[[record]]
molecule = "COc1ccc(Nc2nc(C(=O)NCc3ccccc3)cc3occc23)cc1"
class_label = "inactive"

[[record]]
molecule = "Cc1ccc(S(=O)(=O)Nc2ccccc2SCCS(=O)(=O)c2ccc(Cl)cc2)cc1"
class_label = "inactive"

[[record]]
molecule = "N#Cc1ccc(Cc2ncc(C(F)(F)F)cc2Cl)s1"
class_label = "inactive"

[[record]]
molecule = "Cc1ccccc1C(=O)Nc1ccc(Cc2ccc(NC(=O)c3ccccc3C)c(O)c2)cc1O"
class_label = "inactive"

[[record]]
molecule = "O=c1cc(CNc2ccc(Br)cc2)nc2nc(-c3ccccc3)[nH]n12"
class_label = "inactive"

[[record]]
molecule = "COCCNC(=O)c1ccc(-c2ccc(N3CCCCC3)nc2)cc1"
class_label = "active"

[[record]]
molecule = "CCn1cc2c(n1)c(=O)n(Cc1ccccc1)c(=O)n2CC(=O)Nc1ccc(OC)cc1"
class_label = "active"

[[record]]
molecule = "Cc1sc(-c2cccnc2)nc1OC(=O)c1ccc(Cl)c(Cl)c1"
class_label = "inactive"

[[record]]
molecule = "Cc1ccc(NC(=O)c2c3c(nc4ccccc24)CCCCC3)c(C)c1"
class_label = "inactive"

[[record]]
molecule = "COc1ccc(CCC(=O)Nc2ncc(C)s2)cc1OC"
class_label = "inactive"

[[record]]
molecule = "COc1ccc(COC(=O)C2=C(C)NC(=O)CC2c2cccc([N+](=O)[O-])c2)cc1 (stereo not drawn)"
class_label = "inactive"

[[record]]
molecule = "CC(=O)c1cccc(NC(=O)c2ccc(CN(c3ccc(C)c(C)c3)S(C)(=O)=O)cc2)c1"
class_label = "inactive"

